tested on: Hepatitis C virus; assay: Antiviral activity against Hepatitis C virus subtype 1b harboring protease A156S mutant by transient replicon assay; type: functional, organism-based, Hepacivirus hominis; details: genotype 1b
Classification by EC50 | ranges: group A: < 0.2 nM; group B: ≥ 0.2 nM and < 0.6 nM; group C: ≥ 0.6 nM

Here's what some known entries look like.
[
  {
    "compound": "COc1ccc2c(O[C@@H]3C[C@H]4C(=O)N[C@]5(C(=O)O)C[C@H]5/C=C\\CCCCC[C@H](NC(=O)OC5CCCC5)C(=O)N4C3)cc(-c3csc(NC(C)C)n3)nc2c1",
    "assigned category": "group C"
  },
  {
    "compound": "COc1ccc2c(O[C@@H]3C[C@H]4C(=O)N[C@]5(C(=O)NS(=O)(=O)C6CC6)C[C@H]5/C=C\\CCCCC[C@H](NC(=O)N5CC6CCCC6C5)C(=O)N4C3)cc(-c3nc(C(C)C)cs3)nc2c1C (stereo partly drawn)",
    "assigned category": "group A"
  },
  {
    "compound": "CCN(C(=O)N[C@H]1CCCCC/C=C\\[C@@H]2C[C@@]2(C(=O)NS(=O)(=O)C2CC2)NC(=O)[C@@H]2C[C@@H](Oc3cc(-c4nc(C5CC5)cs4)nc4c(C)c(OC)ccc34)CN2C1=O)C(C)C",
    "assigned category": "group C"
  },
  {
    "compound": "COc1ccc2c(O[C@@H]3C[C@H]4C(=O)N[C@]5(C(=O)NS(=O)(=O)C6CC6)C[C@H]5/C=C\\CCCCC[C@H](NC(=O)N5CCC(CC(N)=O)CC5)C(=O)N4C3)cc(-c3nc(C(C)C)cs3)nc2c1C",
    "assigned category": "group A"
  },
  {
    "compound": "CCC[C@H](NC(=O)[C@@H]1[C@H]2CCC[C@H]2CN1C(=O)[C@@H](NC(=O)[C@@H](NC(=O)c1cnccn1)C1CCCCC1)C(C)(C)C)C(=O)C(=O)NC1CC1",
    "assigned category": "group C"
  },
  {
    "compound": "COc1ccc2c(O[C@@H]3C[C@H]4C(=O)N[C@]5(C(=O)NS(=O)(=O)C6CC6)C[C@H]5/C=C\\CCCCC[C@H](NC(=O)N5CCOCC5)C(=O)N4C3)cc(-c3nc(C(C)C)cs3)nc2c1C",
    "assigned category": "group A"
  },
  {
    "compound": "COc1ccc2c(O[C@@H]3C[C@H]4C(=O)N[C@]5(C(=O)NS(=O)(=O)C6CC6)C[C@H]5/C=C\\CCCCC[C@H](NC(=O)N5C[C@@H](C)O[C@@H](C)C5)C(=O)N4C3)cc(-c3nc(C(C)C)cs3)nc2c1C",
    "assigned category": "group C"
  },
  {
    "compound": "COc1ccc2c(O[C@@H]3C[C@H]4C(=O)N[C@]5(C(=O)NS(=O)(=O)C6CC6)C[C@H]5/C=C\\CCCCC[C@H](NC(=O)N5CCCCC5)C(=O)N4C3)cc(-c3nc(C(C)C)cs3)nc2c1C",
    "assigned category": "group A"
  },
  {
    "compound": "COc1ccc2c(O[C@@H]3C[C@H]4C(=O)N[C@]5(C(=O)NS(=O)(=O)C6CC6)C[C@H]5/C=C\\CCCCC[C@H](NC(=O)N5CCC(N6CCCC6)CC5)C(=O)N4C3)cc(-c3nc(C(C)C)cs3)nc2c1C",
    "assigned category": "group C"
  },
  {
    "compound": "CCN(C)C(=O)N[C@H]1CCCCC/C=C\\[C@@H]2C[C@@]2(C(=O)NS(=O)(=O)C2CC2)NC(=O)[C@@H]2C[C@@H](Oc3cc(-c4nc(C(C)C)cs4)nc4c(C)c(OC)ccc34)CN2C1=O",
    "assigned category": "group B"
  }
]

[in] Any idea which band COc1ccc2c(O[C@@H]3C[C@H]4C(=O)N[C@]5(C(=O)NS(=O)(=O)C6CC6)C[C@H]5/C=C\CCCCC[C@H](NC(=O)N(C)C(C)(C)C)C(=O)N4C3)cc(-c3nc(C4CC4)cs3)nc2c1C is in?
[out] group B

[in] Next up: COc1ccc2c(O[C@@H]3C[C@H]4C(=O)N[C@]5(C(=O)NS(=O)(=O)C6CC6)C[C@H]5/C=C\CCCCC[C@H](NC(=O)N5CCS(=O)(=O)CC5)C(=O)N4C3)cc(-c3nc(C(C)C)cs3)nc2c1C
[out] group B

[in] Subsequent entry: COc1ccc2c(O[C@@H]3C[C@H]4C(=O)N[C@@]5(C(=O)NS(=O)(=O)C6CC6)C[C@@H]5/C=C/CCCCN(C)C(=O)[C@@H]4C3)cc(-c3nc(C(C)C)cs3)nc2c1C
[out] group B
